Molecular target: Thyrotropin receptor (Homo sapiens) (UniProt P16473)
Sequence (P16473 whole entry, looked up): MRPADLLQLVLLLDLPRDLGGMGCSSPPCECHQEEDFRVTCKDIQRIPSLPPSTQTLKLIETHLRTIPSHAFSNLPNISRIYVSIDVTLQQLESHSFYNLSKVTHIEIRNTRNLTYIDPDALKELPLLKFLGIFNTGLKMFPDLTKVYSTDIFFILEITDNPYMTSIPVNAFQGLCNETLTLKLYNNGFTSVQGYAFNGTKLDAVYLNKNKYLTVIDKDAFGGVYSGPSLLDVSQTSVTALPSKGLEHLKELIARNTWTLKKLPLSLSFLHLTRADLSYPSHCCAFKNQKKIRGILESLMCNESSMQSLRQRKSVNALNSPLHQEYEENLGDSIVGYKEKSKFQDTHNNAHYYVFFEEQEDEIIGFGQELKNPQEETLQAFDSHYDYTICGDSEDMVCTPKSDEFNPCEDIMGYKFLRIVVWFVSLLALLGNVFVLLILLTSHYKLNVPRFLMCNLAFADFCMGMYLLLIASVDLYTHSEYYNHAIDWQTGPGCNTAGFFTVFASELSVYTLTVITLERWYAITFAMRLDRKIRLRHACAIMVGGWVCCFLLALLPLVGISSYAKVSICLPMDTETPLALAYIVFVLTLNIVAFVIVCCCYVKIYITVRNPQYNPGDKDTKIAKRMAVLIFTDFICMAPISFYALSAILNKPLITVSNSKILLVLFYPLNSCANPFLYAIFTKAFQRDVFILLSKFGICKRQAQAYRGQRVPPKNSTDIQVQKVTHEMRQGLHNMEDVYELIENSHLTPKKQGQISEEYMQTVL
Assay: qHTS assay to identify small molecule agonists of the thyroid stimulating hormone receptor (TSHR) signaling pathway (AID 1224843); further: on the % scale 0 is the no-effect control and ±100 the full control effect; nearly all actives have a fitted effect of over 45% in size
Conditions: TSHR-HEK293 cells, cAMP HTRF, agonist mode, 30 min; series mostly up to 92.4 µM
Records with an inconclusive call do not appear. The source made the active and inactive calls. The call rests on the fitted dose curve.
measurement_kind: activation

Worked examples follow.
>  <compound>
N[C@@H](Cc1ccc(O)cc1)C(=O)O

>  <measured_target>
Thyrotropin receptor (Homo sapiens) (UniProt P16473)

>  <activation>
8.55% [at 8.39 µM] (inactive)

$$$$
>  <compound>
CCC(C)C(C)=O (configuration not stated)

>  <measured_target>
Thyrotropin receptor (Homo sapiens) (UniProt P16473)

>  <activation>
inactive

$$$$
>  <compound>
CC(=O)CC(=O)OC(C)(C)C

>  <measured_target>
Thyrotropin receptor (Homo sapiens) (UniProt P16473)

>  <activation>
inactive

$$$$
>  <compound>
CN1C[C@@H]2C[C@H]1CN2c1cc2c(cc1F)c(=O)c(C(=O)O)cn2C1CC1

>  <measured_target>
Thyrotropin receptor (Homo sapiens) (UniProt P16473)

>  <activation>
1.11% [at 19 µM] (inactive)

$$$$
>  <compound>
CC(C)OC(=O)OCOP(=O)(CO[C@H](C)Cn1cnc2c(N)ncnc21)OCOC(=O)OC(C)C

>  <measured_target>
Thyrotropin receptor (Homo sapiens) (UniProt P16473)

>  <activation>
inactive

$$$$

Enquiry: I'd like to know its activation. The compound in question is CCCc1ccc(O)cc1
Return: inactive

Enquiry: How about this compound: C/C(CC(C)C)=N\O
Return: inactive

====

Assay: qHTS assay to identify small molecule that activate the aryl hydrocarbon receptor (AhR) signaling pathway - cell viability counter screen (AID 743086);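 further: HepG2 liver cells carrying the AhR DRE luciferase reporter; on the % scale 0 is the no-effect control and ±100 the full control effect; nearly all actives have a fitted effect of over 45% in size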
Conditions: HepG2-AhR-luc viability, CellTiter-Fluor, 24 h; series mostly up to 70.3 µM
Results filed as inconclusive are left out. The source made the active and inactive calls. Calls follow the shape of the dose curve; as a rule, active = well fitted cell-killing curve with a large enough effect in the repeat runs; inconclusive = weak or mixed curves, or effect the other way; inactive = flat fitted curve, though single readings scatter.
measurement_kind: outcome

Worked examples follow.
>  <compound>
COP(=O)(O)OP(=O)(O)OC

>  <outcome>
inactive

$$$$
>  <compound>
NCC1(Cc2noc(=O)[nH]2)CCCCC1

>  <outcome>
inactive

$$$$
>  <compound>
COC(C)(OC)OC

>  <outcome>
inactive

$$$$
>  <compound>
CCC/C=C(\C=O)CC

>  <outcome>
inactive

$$$$
>  <compound>
CC(=O)C1C(=O)C=C(C)OC1=O (centres undefined)

>  <outcome>
inactive

$$$$

Enquiry: I'd like to know its outcome. The compound in question is Cc1ccc2c(c1)C(=O)c1ccccc1C2=O
Return: inactive

Enquiry: How about this compound: CC(=O)O[Si](C)(OC(C)=O)OC(C)=O
Return: inactive

Enquiry: How about this compound: C[Si]1(C)O[Si](C)(C)O[Si](C)(C)O[Si](C)(C)O[Si](C)(C)O1
Return: inactive

Enquiry: How about this compound: CCCC(=O)OC/C=C(\C)CCC=C(C)C
Return: inactive

Enquiry: How about this compound: CCC(C)C(=O)OCCc1ccccc1 (centres undefined)
Return: inactive

Enquiry: How about this compound: CCn1cc(C(=O)O)c(=O)c2cnc(N3CCCC3)nc21
Return: inactive

====

Experiment: qHTS assay to identify small molecule agonists of the TGF-beta/Smad signaling pathway (AID 1346859); further: on the % scale 0 is the no-effect control and ±100 the full control effect
Details: SBE-bla HEK293T, TGF-beta/Smad beta-lactamase reporter, 5 h; series mostly up to 76.8 µM
Inconclusive results are not listed. The source made the active and inactive calls. The call rests on the fitted dose curve; in most records, active means well fitted activation curve with a large enough effect in the signal ratio in the repeat runs (not every such curve was filed as active); inconclusive means weak or mixed curves; inactive means flat fitted curve, though single readings scatter; the % refers to the signal ratio. Where a SMILES comes first, the peptide text is derived from it.
measurement_kind: activation

>  <molecule>
CC(=O)N[C@@H](CO)C(=O)N[C@@H](CC(=O)O)C(=O)N[C@@H](CCCCN)C(=O)N1CCC[C@H]1C(=O)O (Ac-SDKP-OH)

>  <activation>
inactive

$$$$
>  <molecule>
CCO[Si](CC)(OCC)OCC

>  <activation>
inactive

$$$$
>  <molecule>
CC(=O)CC(=O)OC(C)(C)C

>  <activation>
inactive

$$$$
>  <molecule>
CC(=O)CC(=O)Nc1ccc(C)cc1C

>  <activation>
inactive

$$$$
>  <molecule>
CCCc1ccc(O)cc1

>  <activation>
inactive

$$$$
>  <molecule>
O=S(=O)(O)c1ccc2c(N=Nc3ccc(S(=O)(=O)O)c4ccccc34)c(O)c(S(=O)(=O)O)cc2c1

>  <activation>
0.897% [at 6.97 µM] (inactive)

$$$$
>  <molecule>
C/C=C(\C)C(C)=O

>  <activation>
inactive

$$$$
>  <molecule>
CCCCCCCCCCCCCCCCCCOCCO

>  <activation>
-0.657% [at 15.8 µM] (inactive)

$$$$
>  <molecule>
CC(=O)OC(C)=O

>  <activation>
inactive

$$$$
>  <molecule>
CCCCOC(=O)C(C)O (stereo not drawn)

>  <activation>
inactive

$$$$

Enquiry: I'd like to know its activation. The molecule in question is N[C@@H](CSCCCO)C(=O)O
Return: 6.83% [at 15.8 µM] (inactive)

Enquiry: How about this molecule: O=C(O)CNC(=O)CNC(=O)CNC(=O)CSC(=O)c1ccccc1
Return: inactive

Enquiry: How about this molecule: COc1nc(N)nc2nc[nH]c12
Return: inactive
